Tested on: T-Rex 293 cell line SC3 cells lacking increased expression of androgen receptor protein
Test: Cellular growth inhibition, T-Rex 293 SC3 cells without doxycycline, CellTiter-Glo
Assay type: cell-based
Conditions: 72 h, T-Rex 293 SC3 cells not exposed to doxycycline, CellTiter-Glo 2.0

{"columns": ["COMPOUND", "SUBJECT OF TEST", "GI50"],
 "data": [
  ["Cc1sc2c(c1C)C(c1ccc([C@H]3CCN(C(=O)[C@@H]4CCCN(c5ncc(C(=O)N[C@H]6C(C)(C)[C@H](Oc7ccc(C#N)c(Cl)c7)C6(C)C)cn5)C4)C3)cc1)=N[C@@H](Cc1ncco1)c1nnc(C)n1-2", "T-Rex 293 cell line SC3 cells lacking increased expression of androgen receptor protein", "< 500 nM"],
  ["Cc1sc2c(c1C)C(c1ccc(C3CN(C(=O)C4CCN(c5ncc(C(=O)N[C@H]6C(C)(C)[C@H](Oc7ccc(C#N)c(Cl)c7)C6(C)C)cn5)CC4)C3)cc1)=N[C@@H](C)c1nnc(C)n1-2", "T-Rex 293 cell line SC3 cells lacking increased expression of androgen receptor protein", "< 500 nM"],
  ["Cc1sc2c(c1C)C(c1ccc(OC3CC4(CCN(c5ncc(C(=O)N[C@H]6C(C)(C)[C@H](Oc7ccc(C#N)c(Cl)c7)C6(C)C)cn5)CC4)C3)cc1F)=N[C@@H](Cc1ncco1)c1nnc(C)n1-2", "T-Rex 293 cell line SC3 cells lacking increased expression of androgen receptor protein", "< 500 nM"],
  ["CC[C@@H]1N=C(c2ccc(C#CC3CC4(C3)CN(c3cnc(C(=O)N[C@H]5C(C)(C)[C@H](Oc6ccc(C#N)c(Cl)c6)C5(C)C)cn3)C4)cc2)c2c(sc(C)c2C)-n2c(C)nnc21", "T-Rex 293 cell line SC3 cells lacking increased expression of androgen receptor protein", "500 to 1500 nM"],
  ["Cc1sc2c(c1C)C(c1ccc([C@H]3CCCCN3C(=O)[C@H]3CCCN(c4ncc(C(=O)N[C@H]5C(C)(C)[C@@H](Oc6ccc(C#N)c(Cl)c6)C5(C)C)cn4)C3)cc1)=N[C@@H](Cc1ncco1)c1nnc(C)n1-2", "T-Rex 293 cell line SC3 cells lacking increased expression of androgen receptor protein", "> 3000 nM"],
  ["Cc1sc2c(c1C)C(c1ccc(C(=O)N3CCCC(C(=O)c4ncc(C(=O)N[C@H]5C(C)(C)[C@H](Oc6ccc(C#N)c(Cl)c6)C5(C)C)cn4)C3)cc1)=N[C@H](Cc1ncco1)c1nnc(C)n1-2 (stereo partly drawn)", "T-Rex 293 cell line SC3 cells lacking increased expression of androgen receptor protein", "> 3000 nM"],
  ["Cc1sc2c(c1C)C(c1ccc(OC3CC4(CCN(c5ncc(C(=O)N[C@H]6C(C)(C)[C@H](Oc7ccc(C#N)c(Cl)c7)C6(C)C)cn5)CC4)C3)cc1)=N[C@@H](Cc1nnn(C)n1)c1nnc(C)n1-2", "T-Rex 293 cell line SC3 cells lacking increased expression of androgen receptor protein", "> 3000 nM"],
  ["CCNC(=O)C[C@@H]1N=C(c2ccc(OCCOCCOC3CCN(c4ncc(C(=O)N[C@H]5C(C)(C)[C@H](Oc6ccc(C#N)c(Cl)c6)C5(C)C)cn4)CC3)c(F)c2F)c2c(sc(C)c2C)-n2c(C)nnc21", "T-Rex 293 cell line SC3 cells lacking increased expression of androgen receptor protein", "500 to 1500 nM"],
  ["CC[C@@H]1N=C(c2ccc(CC3CC4(CCN(c5cnc(C(=O)N[C@H]6C(C)(C)[C@H](Oc7ccc(C#N)c(Cl)c7)C6(C)C)cn5)CC4)C3)cc2)c2c(sc(C)c2C)-n2c(C)nnc21", "T-Rex 293 cell line SC3 cells lacking increased expression of androgen receptor protein", "> 3000 nM"]
]}

Each recorded value in this set is attributed to patent US20260062422A1.
